Sourced from patent US20200299384A1

Parameter: ELISA (A450). Scope: all listed entries.
# measured on: T1, Cynomolgus Monkey CD3 epsilon protein (Cynomolgus monkey, UniProt Q95LI5 22-117)
# T1 construct: Bought protein; also called Cyno-Monkey CD3epsilon
# T1 sequence (looked up): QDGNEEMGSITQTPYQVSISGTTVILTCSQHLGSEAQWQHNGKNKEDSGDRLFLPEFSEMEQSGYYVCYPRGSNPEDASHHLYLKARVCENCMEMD
# assay text: ELISA, antigen coated on plate
Form entry: value (A450) — number only.

The following binders have reported results that may help.
- WBP3311_2.306.4 (antibody, IgG2b, V domains shown, Mouse monoclonal antibody from hybridoma; also called W3311-2.306.4; W3311-2.306.4-mIgG2bK) VH: QVQLQQSGPELVKPGASVRISCKASGFAFTDYYIHWVKQRPGQGLEWIGWISPGNVNTKYNENFKGRATLTADLSSSTAYMQLSSLTSEDSAVYFCARDGYSLYYFDYWGQGTTLTVSS VL: DIVMSQSPSSLTVSAGEKVTMSCKSSQSLLNSRTRKNYLAWYQQKPGQSPKLLIYWASTRQSGVPDRFTGSGSGTAFTLTISGVQAEDLAVYFCTQSHTLRTFGGGTKLEIK: 2.82
- WBP3311_2.482.5 (antibody, V domains shown, Mouse monoclonal antibody from hybridoma; also called W3311-2.482.5) VH: QVQLQQSGPELVKPGSSVKISCKPSGYTFTTYYIHWVKQRPGQGLEWIGWIFPGSDNIKYNENFKDKATLTADTSSSTAYMQLSSLTSEDSAVYFCARDSVSRYYFDYWGQGTILTVSS VL: DIVMSQSPSSLAVSAGEKVTMSCKSSQSLVNDRTRKNYLAWYQQKPGLSPKLLIYWASTRESGVPDRFTGSGSGTDFTLTISSVQAEDLAVYYCAQSFILRTFGGGTKLEIK: 2.87

Shift focus to the following entry.
[in] Looking for the measured ELISA (A450) of WBP3311_2.383.47 (antibody, V domains shown, Mouse monoclonal antibody from hybridoma) VH: QVQLQQSGPELVKPGASVRISCKTSGFTFTNYYIHWVIQRPGQGLEWIGWISPENGNTKYNENFQDKATLTADISSSTAYMHLSSLTSEDSAVYFCARDGYSLYYFDYWGQGTTLTVSS VL: DIVMSQSPSSLTVSAGEKVTMSCKSSQSLLNSRTRKNYLAWYQQKPGQSPKLLIYWASIRVSGVPDRFTGSGSGTTFTLTISGVQAEDLAVYYCTQSHTLRTFGGGTKLEIK , can you help?
[out] 2.76
